Literature-derived pIC50 for NT-3 growth factor receptor (Homo sapiens) follows.
pIC50: −log10 of the molar value.

[
  {
    "COMPOUND": "CCOc1nn(-c2ccccc2)c(NC(=O)NC2CN(CCOC)C[C@H]2c2ccc(F)c(F)c2)c1C (some centres undefined)",
    "MODIFIER SIGN": "=",
    "pIC50": 5.60
  },
  {
    "COMPOUND": "Cn1ccc(-c2cc(C(=O)Nc3cc(O)cnc3-c3ccccc3)ccc2C(F)(F)F)n1",
    "MODIFIER SIGN": "<",
    "pIC50": 3.30
  },
  {
    "COMPOUND": "CC(C)c1ccn2ncnc(N[C@H]3CC[C@@H](N4CCN(C(=O)CCC(=O)N5CCC(CCN6CCN(c7ccc8c(c7)C(=O)N(C7CCC(=O)NC7=O)C8=O)CC6)CC5)CC4)CC3)c12 (some centres undefined)",
    "MODIFIER SIGN": "=",
    "pIC50": 7.00
  },
  {
    "COMPOUND": "O=C(Nc1cccc(-c2csc(N3CCN(CCO)CC3)n2)c1)c1cc(F)cc(F)c1",
    "MODIFIER SIGN": "<",
    "pIC50": 7.00
  }
]
